TEST_TARGET: CXCR4 (Homo sapiens)
Construct: Human T lymphoblast cells (CCRF-CEM) expressing endogenous CXCR4 receptors; endogenous in cells; host or cells: CCRF-CEM (human T lymphoblast cells)
Sequence (P61073 whole entry): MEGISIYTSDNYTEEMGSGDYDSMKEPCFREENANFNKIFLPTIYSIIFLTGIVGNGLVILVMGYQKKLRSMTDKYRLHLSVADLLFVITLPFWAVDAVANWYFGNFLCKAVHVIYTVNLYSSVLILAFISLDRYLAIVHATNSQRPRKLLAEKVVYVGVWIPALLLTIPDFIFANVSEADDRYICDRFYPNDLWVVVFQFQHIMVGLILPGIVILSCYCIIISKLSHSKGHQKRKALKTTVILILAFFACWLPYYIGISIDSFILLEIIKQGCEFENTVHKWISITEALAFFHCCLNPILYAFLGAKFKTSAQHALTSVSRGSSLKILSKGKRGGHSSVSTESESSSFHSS
PROCEDURE_SUMMARY: CXCR4-CEM calcium flux assay, antagonist mode (inhibition of SDF-1α-induced calcium flux)
Assay type: cell-based
CONDITION_INFO: CCRF-CEM cells expressing endogenous CXCR4, stimulated with 4 nM SDF-1α, read-out: CXCR4 Ca^2+ Flux IC50
pIC50: −log10 of the molar value.
MEASURED_ENDPOINT: pIC50

CN(C[C@H]1Cc2c(cccc2N2C[C@@H]3C[C@H]2CN3)CN1)C1CCCc2cccnc21 (stereo partly shown)	6.84
CN(C[C@H]1Cc2c(cccc2N2CCN3CCC[C@H]3C2)CN1)[C@H]1CCCc2cccnc21	8.53

A: NCc1ccc(CN(CC2Cc3ncccc3CN2)[C@H]2CCCc3cccnc32)cc1 (single isomer, unassigned) [EMU193]
B: c1ccc2c(c1)CN[C@@H](CN(Cc1ccc(CNC3CCOCC3)cc1)[C@H]1CCCc3cccnc31)C2
Query: From the items above, decide which of A and B has the lower pIC50 reading. Refer to your chosen item by its label in the answer.
Response: A
(A: 4.77, B: 7.04)

----------
TEST_TARGET: CXCR4 (Homo sapiens)
Construct: Human T lymphoblast cells (CCRF-CEM) expressing endogenous CXCR4 receptors; endogenous in cells; host or cells: CCRF-CEM (human T lymphoblast cells)
PROCEDURE_SUMMARY: CXCR4-CEM calcium flux assay, antagonist mode (inhibition of SDF-1α-induced calcium flux)
Format: cell-based
CONDITION_INFO: CCRF-CEM cells expressing endogenous CXCR4, stimulated with 4 nM SDF-1α, read-out: CXCR4 Ca^2+ Flux IC50
pIC50: −log10 of the molar value.
MEASURED_ENDPOINT: pIC50

CN(C[C@H]1Cc2c(cccc2N2C[C@@H]3CCN(C)[C@@H]3C2)CN1)C1CCCc2cccnc21 (stereo partly shown)	7.94

P: C[C@@H]1CN(c2cccc3c2CC(CN(C)[C@H]2CCCc4cccnc42)NC3)C[C@H](C)N1 (single isomer, unassigned) [EMU096 (Stereoisomer 1)]
Q: Cc1ccc(CN(CCCN2CCNCC2)C[C@H]2Cc3ccccc3CN2)nc1
R: CN(C[C@H]1Cc2c(cccc2N2C[C@H]3C[C@@H]2CN3)CN1)[C@H]1CCCc2cccnc21
Query: Provide the items ranked by increasing pIC50. Your reply should list the labels following the order given in the request.
Response: Q, P, R
(Q: 5.51, P: 7.21, R: 7.68)

----------
TEST_TARGET: CXCR4 (Homo sapiens)
Construct: Human T lymphoblast cells (CCRF-CEM) expressing endogenous CXCR4 receptors; endogenous in cells; host or cells: CCRF-CEM (human T lymphoblast cells)
PROCEDURE_SUMMARY: CXCR4-CEM calcium flux assay, antagonist mode (inhibition of SDF-1α-induced calcium flux)
Format: cell-based
CONDITION_INFO: CCRF-CEM cells expressing endogenous CXCR4, stimulated with 4 nM SDF-1α, read-out: CXCR4 Ca^2+ Flux IC50
pIC50: −log10 of the molar value.
MEASURED_ENDPOINT: pIC50

NC(=O)NC/C=C\CN(CC1Cc2ncccc2CN1)[C@H]1CCCc2cccnc21 (single isomer, unassigned) [EMU209 (Stereoisomer 1)]	6.33
FC1(F)CCC(CN(C[C@H]2Cc3c(cccc3N3CCNCC3)CN2)[C@H]2CCCc3cccnc32)CC1 [EMU120]	6.30
CN(C[C@H]1Cc2c(cccc2NCCN2CCOCC2)CN1)[C@H]1CCCc2cccnc21 [EMU173]	7.67

1: CC1(C)CCC(NC/C=C/CN(C[C@H]2Cc3ccccc3CN2)[C@H]2CCCc3cccnc32)CC1 [EMU153]
2: FC1(F)CCC(NCc2ccc(CN(C[C@H]3Cc4ccccc4CN3)[C@H]3CCCc4cccnc43)cc2)CC1 [EMU182]
3: c1cnc(CN(CCCN2CCNCC2)[C@H]2CCCc3cccnc32)nc1 [EMU187]
Query: Provide the items ranked by increasing pIC50. Your reply should list the labels following the order given in the request.
Response: 3, 2, 1
